meta.source: patent US20260242515A1

Reported Top (OD450) is given for each of the following binders.
# Target System: T1, Human ADAM9 protein (ACROBiosystems, Cat. No. AD9-H52H7) (human, UniProt Q13443 29-697)
# T1 construct: Bought protein; also called Human ADAM-His protein; human ADAM9 antigen; not shown: His tag
# T1 sequence (looked up): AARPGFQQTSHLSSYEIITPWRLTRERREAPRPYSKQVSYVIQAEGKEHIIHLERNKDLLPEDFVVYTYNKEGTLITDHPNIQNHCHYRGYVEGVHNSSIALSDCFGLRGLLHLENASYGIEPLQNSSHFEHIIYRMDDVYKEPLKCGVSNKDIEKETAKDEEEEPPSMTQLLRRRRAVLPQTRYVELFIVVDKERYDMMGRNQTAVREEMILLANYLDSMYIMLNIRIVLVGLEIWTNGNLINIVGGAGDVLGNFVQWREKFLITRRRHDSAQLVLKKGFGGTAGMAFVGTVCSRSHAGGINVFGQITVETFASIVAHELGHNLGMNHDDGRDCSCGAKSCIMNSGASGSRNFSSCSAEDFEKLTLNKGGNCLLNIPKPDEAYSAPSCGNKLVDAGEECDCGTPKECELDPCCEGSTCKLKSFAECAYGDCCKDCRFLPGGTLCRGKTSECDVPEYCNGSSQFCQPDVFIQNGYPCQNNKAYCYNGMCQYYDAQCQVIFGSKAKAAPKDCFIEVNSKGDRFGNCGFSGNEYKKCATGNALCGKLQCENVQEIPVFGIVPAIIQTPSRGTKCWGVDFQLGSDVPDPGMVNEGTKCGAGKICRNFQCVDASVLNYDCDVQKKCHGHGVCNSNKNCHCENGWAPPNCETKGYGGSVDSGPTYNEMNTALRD
# Procedure Text: indirect ELISA, human ADAM9-His coated at 1 ug/mL
// units = OD450; emit number, no label

- Binder: "Ab15 (antibody, human IgG1, kappa, V domains shown, Humanized anti-ADAM9 IgG1/kappa; also called Ab15-V (variable regions)) VH: QVQLQQPGAELKKPGASVKVSCKASGFTFPLYWMNWVRQRPGRGLEWIGRIIPIFGHTKYNEKFKDRATMTADESSSTAYMELSSLTSEDSAVYYCARGGYYYYPREGFLDYWGQGTSVTVSS VL: DIVMTQSPDSLSVSPGERATINCRSSQSVDYSGDSYMNWYQQKPGQSPRLLIYAASDRESGVPDRFSGSGSGTDFTLKISNVEEEDAATYYCQQSREDPFTFGQGTRVEIKR"
  Top (OD450): 3.28
- Binder: "Ab7 (antibody, human IgG1, kappa, V domains shown, also called Ab07; Ab7-V (variable regions)) VH: QVQLQESGAEVKRPGSSVKVSCKASGFTFPLYWMNWVRQRPGQGLEWMGRIIPIFGHTDYNEKFKDRATITRDESSNTAYMELSRLRSEDSAVYYCARGGYYYYPREGFLDYWGQGTSVTVSS VL: DIVMTQSPASLSVSPGERASINCRSDQSVDYSGDSYMNWYQQKPGKSPRLLIYAASDRESGVPDRFSGSGSGTDFTLNINSVEEEDAGTYYCQQSREDPFTFGQGTRVDIKR"
  Top (OD450): 3.31

Now for the binder whose Top (OD450) we want.
# Top (OD450) (binder: Ab16 (antibody, human IgG1, kappa, V domains shown, Humanized anti-ADAM9 IgG1/kappa; also called Ab16-V (variable regions)) VH: QVQLQQPGTEVVKPGASVKLSCKASGFTFPLYWMHWVRQRPGRGLEWIGRIIPIFGHTKYNEKFKNKATLTADESSSTAYMELRSLTSDDSAVYYCARGGYYYYPREGFLDYWGQGTSVTVSS VL: DIVMTQSPASLSVSPGERASISCRSSQSVDYSGDSYMNWYQQKPGQSPRLLIYAASDRESGVPDRFSGSGSGTDFTLKISRVEEEDAGTYYCQQSREDPFTFGQGTKVDIKR ) is 3.36
